Test system: FAP-expressing HEK293T:hFAP tumor xenografts
run.description: Ex vivo biodistribution in HEK293T:hFAP tumor-bearing mice
condition.details: 1 h post injection, mean ± SD, n = 4
Method: Biodistribution studies were also conducted at 1 h post injection with [^68Ga]Ga-AV01017, [^68Ga]Ga-AV01030, [^68Ga]Ga-AV01038, [^68Ga]Ga-HTK03041, and [^68Ga]Ga-FAPI-04 in HEK293T:hFAP tumor-bearing mice (Figure 6 and Table S5, Supplementary Materials). Tumor uptake values for [^68Ga]Ga-AV01017, [^68Ga]Ga-AV01030, [^68Ga]Ga-AV01038, [^68Ga]Ga-HTK03041, and [^68Ga]Ga-FAPI-04 were 2.99 ± 0.37, 3.69 ± 0.81, 3.64 ± 0.83, 0.62 ± 0.19, and 12.5 ± 2.00 %ID/g, respectively. […]
measurement.name: Tumor/blood uptake ratio
Give bare numbers.

>  <compound>
N#C[C@@H]1CC(F)(F)CN1C(=O)CNC(=O)c1ccnc2ccc(OCc3cn(CC(=O)N[C@@H](CCCCNC(=O)CN4CCN(CC(=O)[O-])CCN(CC(=O)[O-])CCN(CC(=O)[O-])CC4)C(=O)NCC(=O)NC[C@H]4CC[C@H](C(=O)N[C@@H](Cc5c6ccccc6cc6ccccc56)C(=O)NCCCC[C@H](NC(=O)N[C@@H](CCC(=O)O)C(=O)O)C(=O)O)CC4)nn3)cc12.[68Ga+3] [[^68Ga]Ga-AV01038]

>  <recorded.measurement>
0.49

$$$$
>  <compound>
O=C([O-])CN1CCN(CC(=O)[O-])CCN(CC(=O)NC[C@H]2CC[C@H](C(=O)N[C@@H](Cc3c4ccccc4cc4ccccc34)C(=O)NCCCC[C@H](NC(=O)N[C@@H](CCC(=O)O)C(=O)O)C(=O)O)CC2)CCN(CC(=O)[O-])CC1.[68Ga+3] [[^68Ga]Ga-HTK03041, reference compound]

>  <recorded.measurement>
0.83

$$$$
>  <compound>
N#C[C@@H]1CC(F)(F)CN1C(=O)CNC(=O)c1ccnc2ccc(OCCCN3CCN(C(=O)CN4CCN(CC(=O)[O-])CCN(CC(=O)[O-])CCN(CC(=O)[O-])CC4)CC3)cc12.[68Ga+3] [[^68Ga]Ga-FAPI-04, reference compound]

>  <recorded.measurement>
11.7

$$$$

Kindly consider the entry below.
Quick note, Tumor/blood uptake ratio for N#C[C@@H]1CC(F)(F)CN1C(=O)CNC(=O)c1ccnc2ccc(OCCCc3cn(CC(=O)N[C@@H](CCCCNC(=O)CN4CCN(CC(=O)[O-])CCN(CC(=O)[O-])CCN(CC(=O)[O-])CC4)C(=O)NCC(=O)NC[C@H]4CC[C@H](C(=O)N[C@@H](Cc5c6ccccc6cc6ccccc56)C(=O)NCCCC[C@H](NC(=O)N[C@@H](CCC(=O)O)C(=O)O)C(=O)O)CC4)nn3)cc12.[68Ga+3] [[^68Ga]Ga-AV01017] landed at 0.18
